System: 556581-035-R-J1-PDC complex spheroid growth;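 also: spheroids exposed to agents for 7 days before viability read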
ASSAY DETAILS: Anticancer human tumor 556581-035-R-J1-PDC patient-derived ovarian carcinoma cell line growth inhibition [Asc]
MEASUREMENT SETUP: curve of first compound; second compound 0.0316 µM
QUANTITY KIND: IC50

compound="O=C(c1cc(Cc2n[nH]c(=O)c3ccccc23)ccc1F)N1CCN(C(=O)C2CC2)CC1 + CNC(C)C(=O)NC1CN(S(=O)(=O)c2cccc(S(=O)(=O)N3CCC4CCC(C(=O)NC(c5ccccc5)c5ccccc5)N4C(=O)C(NC(=O)C(C)NC)C3)c2)CCC2CCC(C(=O)NC(c3ccccc3)c3ccccc3)N2C1=O" assay_value="> 10 µM"
compound="CCN1C(C(=O)NC23CCC(C(=O)O)(CC2)CC3)C(c2cccc(Cl)c2F)C2(C(=O)Nc3cc(Cl)ccc32)C12CCCCC2 (centres undefined) + CNC(C)C(=O)NC1CN(S(=O)(=O)c2cccc(S(=O)(=O)N3CCC4CCC(C(=O)NC(c5ccccc5)c5ccccc5)N4C(=O)C(NC(=O)C(C)NC)C3)c2)CCC2CCC(C(=O)NC(c3ccccc3)c3ccccc3)N2C1=O" assay_value="> 3 µM"
compound="CCN1CCN(Cc2ccc(Nc3ncc(F)c(-c4cc(F)c5nc(C)n(C(C)C)c5c4)n3)nc2)CC1 + CNC(C)C(=O)NC1CN(S(=O)(=O)c2cccc(S(=O)(=O)N3CCC4CCC(C(=O)NC(c5ccccc5)c5ccccc5)N4C(=O)C(NC(=O)C(C)NC)C3)c2)CCC2CCC(C(=O)NC(c3ccccc3)c3ccccc3)N2C1=O" assay_value="> 1 µM"
compound="NC(=O)C(=Cn1cnc(-c2cc(C(F)(F)F)cc(C(F)(F)F)c2)n1)c1cncnc1 + CNC(C)C(=O)NC1CN(S(=O)(=O)c2cccc(S(=O)(=O)N3CCC4CCC(C(=O)NC(c5ccccc5)c5ccccc5)N4C(=O)C(NC(=O)C(C)NC)C3)c2)CCC2CCC(C(=O)NC(c3ccccc3)c3ccccc3)N2C1=O" assay_value="> 0.3 µM"
